System: 16 HPV-positive HNSCC and cervical squamous cancer cell lines
Method: High-throughput drug screen (HTDS), cell death by AOC_LD, HPV-positive cell lines
Type: cell-based
Measurement Parameters: resistant = AOC_LD 0
Please use 1 whenever HPV positive Resistant (number of cell lines) is not below 8, and 0 whenever it is.

Does the molecule Cc1cc(Nc2cc(N3CCN(C)CC3)nc(Sc3ccc(NC(=O)C4CC4)cc3)n2)[nH]n1 have recorded HPV positive Resistant (number of cell lines) that is 8 or more?
0

Hello, I need to know if COc1cc([C@@H]2c3cc4c(cc3[C@@H](O[C@@H]3O[C@@H]5CO[C@@H](C)O[C@H]5[C@H](O)[C@H]3O)[C@H]3COC(=O)[C@H]23)OCO4)cc(OC)c1O [ETOPOSIDE] has measured HPV positive Resistant (number of cell lines) not below 8. Thanks!
0
